# Test system: HCT-116 colon
# assayExplanation: NCI tumour cell line growth inhibition, 48 h
observationType: TGI

INSERT INTO assay_data (compound, targetortestsystem, result) VALUES
  ('N#CC(C#N)=Cc1ccc(CP(=O)(O)O)cc1', 'HCT-116 colon', '> 100 µM'),
  ('COc1cc2c(cc1OC)C1Cc3ccc(OC)c(OC)c3C[N+]1([O-])CC2 (stereo not drawn)', 'HCT-116 colon', '> 100 µM');

Switching to the query record.
Given CCOC1NC(=O)Oc2cc3ccccc3cc21 (stereo not drawn) , respond with its TGI.
> 100 µM

---

# Test system: HCT-15 colon
# assayExplanation: NCI tumour cell line growth inhibition, 48 h; in the data active means GI50 below about 0.43 µM; inactive means the rest
One label from this list, please: YES for active, NO for inactive

INSERT INTO results (molecule, targetortestsystem, category) VALUES
  ('CCCCCCCCCCCCCC[n+]1ccc(C(N)=O)cc1', 'HCT-15 colon', 'NO'),
  ('O=C(c1ccco1)c1c(C(F)(F)F)n([O-])c2cc(C(F)(F)F)ccc2[n+]1=O', 'HCT-15 colon', 'YES'),
  ('COc1cc(C(=O)O[C@H](C(=O)NCCN(C)CCNC(=O)[C@@H](OC(=O)c2cc(OC)cc3c(C)cccc23)[C@]2(C)CO2)[C@]2(C)CO2)c2cccc(C)c2c1', 'HCT-15 colon', 'YES'),
  ('C[C@]12CC[C@H]3[C@@H](CC4SC(N)=NC45C/C(=N/NC(N)=O)CC[C@]35C)[C@@H]1CCC2=O (stereo not given in full)', 'HCT-15 colon', 'NO');

How was "C=C1C(=O)O[C@H]2[C@H]1CC/C(COC(=O)CCCc1c[nH]c3ccccc13)=C\CC[C@@]1(C)O[C@@H]21" classified in this test?
NO

Numbers sourced from PubChem BioAssay (NCI).
